- experimental_system: BTK (Homo sapiens, UniProt Q06187)
- Sequence (Q06187 whole entry): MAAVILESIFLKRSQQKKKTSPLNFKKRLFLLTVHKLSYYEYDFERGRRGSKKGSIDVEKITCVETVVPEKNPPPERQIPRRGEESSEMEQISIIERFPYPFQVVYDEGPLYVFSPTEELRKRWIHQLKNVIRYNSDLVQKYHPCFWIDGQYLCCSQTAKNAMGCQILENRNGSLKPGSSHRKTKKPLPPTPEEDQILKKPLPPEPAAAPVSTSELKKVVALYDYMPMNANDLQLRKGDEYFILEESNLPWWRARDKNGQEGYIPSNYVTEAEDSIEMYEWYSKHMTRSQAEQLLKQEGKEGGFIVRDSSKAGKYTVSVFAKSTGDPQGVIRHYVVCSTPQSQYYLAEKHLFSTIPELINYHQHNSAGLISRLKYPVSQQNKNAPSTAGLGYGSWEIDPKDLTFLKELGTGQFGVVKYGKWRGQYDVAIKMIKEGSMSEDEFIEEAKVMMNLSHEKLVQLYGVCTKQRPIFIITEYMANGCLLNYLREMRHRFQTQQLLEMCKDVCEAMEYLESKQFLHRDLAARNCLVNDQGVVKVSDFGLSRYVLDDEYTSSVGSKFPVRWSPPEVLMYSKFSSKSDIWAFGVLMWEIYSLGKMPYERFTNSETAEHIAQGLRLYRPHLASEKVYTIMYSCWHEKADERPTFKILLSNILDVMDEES
- measurement_protocol: BTK degradation in NAMALWA cells (immunoblot)
- Type: cell-based
- Set-up: host or cells: NAMALWA
- assay_context: concentration needed to degrade 50% of the total pool of BTK; NAMALWA cells; read-out: DC50
reported_endpoint: DC50 (nM)
// return numeric value only (unit: nM, not printed)

Some molecules with recorded DC50:
molecule	DC50 [nM]
Nc1ncnc2c1c(-c1ccc(Oc3ccccc3)cc1)nn2C1CCN(CCOCCOCCOc2ccc3c(c2)C(=O)N(C2CCC(=O)NC2=O)C3=O)CC1 (centres unmarked)	13
Nc1ncnc2c1c(-c1ccc(Oc3ccccc3)cc1)nn2C1CCN(CCOCCOCC(=O)Nc2ccc3c(c2)C(=O)N(C2CCC(=O)NC2=O)C3=O)CC1 (centres unmarked)	9.1
Cc1ncsc1-c1ccc(CNC(=O)[C@@H]2C[C@@H](O)CN2C(=O)[C@@H](NC(=O)COCCCCCOCCCCCCN2CCC(n3nc(-c4ccc(Oc5ccccc5)cc4)c4c(N)ncnc43)CC2)C(C)(C)C)cc1	144
Cc1ncsc1-c1ccc(CNC(=O)[C@@H]2C[C@@H](O)CN2C(=O)[C@@H](NC(=O)COCCOCCOCCOCCCCN2CCC(n3nc(-c4ccc(Oc5ccccc5)cc4)c4c(N)ncnc43)CC2)C(C)(C)C)cc1	124

Now look at this one.
What measured DC50 is associated with Nc1ncnc2c1c(-c1ccc(Oc3ccccc3)cc1)nn2C1CCN(CCOCCOCCOc2ccc3c(c2)CN(C2CCC(=O)NC2=O)C3=O)CC1 (centres unmarked) on BTK (Homo sapiens, UniProt Q06187)?
7

###

Catalogue of DC50 values
- experimental_system: BTK (Homo sapiens, UniProt Q06187)
- measurement_protocol: BTK degradation in NAMALWA cells (immunoblot)
- Type: cell-based
- Design: host or cells: NAMALWA
- assay_context: concentration needed to degrade 50% of the total pool of BTK; NAMALWA cells; read-out: DC50
// return numeric value only (unit: nM, not printed)

Some compounds with recorded DC50:
compound	reported_endpoint	meas_value
Nc1ncnc2c1c(-c1ccc(Oc3ccccc3)cc1)nn2C1CCN(CCCCOCCCCOCC(=O)Nc2cccc3c2C(=O)N(C2CCC(=O)NC2=O)C3=O)CC1 (stereo not shown)	DC50	90.1
Nc1ncnc2c1c(-c1ccc(Oc3ccccc3)cc1)nn2C1CCN(CCCCOCCCCOCC(=O)Nc2ccc3c(c2)C(=O)N(C2CCC(=O)NC2=O)C3=O)CC1 (stereo not shown)	DC50	11.6
Cc1ncsc1-c1ccc(CNC(=O)[C@@H]2C[C@@H](O)CN2C(=O)[C@@H](NC(=O)COCCOCCOCCOCCN2CCC(n3nc(-c4ccc(Oc5ccccc5)cc4)c4c(N)ncnc43)CC2)C(C)(C)C)cc1	DC50	278

Now look at this one.
Consider the compound Cc1ncsc1-c1ccc(CNC(=O)[C@@H]2C[C@@H](O)CN2C(=O)[C@@H](NC(=O)COCCOCCOCCOCCN2CCN(C3CCC(n4nc(-c5ccc(Oc6ccccc6)cc5)c5c(N)ncnc54)CC3)CC2)C(C)(C)C)cc1 (stereo partly shown) and give its measured DC50.
248

###

- experimental_system: BTK (Homo sapiens, UniProt Q06187)
- measurement_protocol: BTK degradation in NAMALWA cells (immunoblot)
- Format: cell-based
- Parameters: host or cells: NAMALWA
- assay_context: maximal BTK degradation, at 1.0 μM; NAMALWA cells
Catalogue of Max values

Some compounds with recorded Max:
compound	meas_value
Cc1ncsc1-c1ccc(CNC(=O)[C@@H]2C[C@@H](O)CN2C(=O)[C@@H](NC(=O)COCCCCCOCCCCCCN2CCC(n3nc(-c4ccc(Oc5ccccc5)cc4)c4c(N)ncnc43)CC2)C(C)(C)C)cc1 [Compound 111]	45%
Cc1ncsc1-c1ccc(CNC(=O)[C@@H]2C[C@@H](O)CN2C(=O)[C@@H](NC(=O)COCCOCCOCCOCCCCCCN2CCC(n3nc(-c4ccc(Oc5ccccc5)cc4)c4c(N)ncnc43)CC2)C(C)(C)C)cc1 [Compound 115]	32%
Cc1ncsc1-c1ccc(CNC(=O)[C@@H]2C[C@@H](O)CN2C(=O)[C@@H](NC(=O)COCCOCCOCCOCCOCCCCCCN2CCC(n3nc(-c4ccc(Oc5ccccc5)cc4)c4c(N)ncnc43)CC2)C(C)(C)C)cc1 [Compound 118]	40%
Nc1ncnc2c1c(-c1ccc(Oc3ccccc3)cc1)nn2C1CCN(CCCCCCOCCCCCCOCC(=O)Nc2cccc3c2C(=O)N(C2CCC(=O)NC2=O)C3=O)CC1 (stereo not drawn) [Compound 107]	98%
Nc1ncnc2c1c(-c1ccc(Oc3ccccc3)cc1)nn2C1CCN(CCCCOCCCCOCC(=O)Nc2cccc3c2C(=O)N(C2CCC(=O)NC2=O)C3=O)CC1 (stereo not drawn) [Compound 106]	93%
Cc1ncsc1-c1ccc(CNC(=O)[C@@H]2C[C@@H](O)CN2C(=O)[C@@H](NC(=O)COCCOCCOCCOCCCCN2CCC(n3nc(-c4ccc(Oc5ccccc5)cc4)c4c(N)ncnc43)CC2)C(C)(C)C)cc1 [Compound 113]	60%
Nc1ncnc2c1c(-c1ccc(Oc3ccccc3)cc1)nn2C1CCN(CCCCCCOCCOCC(=O)Nc2cccc3c2C(=O)N(C2CCC(=O)NC2=O)C3=O)CC1 (stereo not drawn) [Compound 104]	96%
Cc1ncsc1-c1ccc(CNC(=O)[C@@H]2C[C@@H](O)CN2C(=O)[C@@H](NC(=O)COCCOCCOCCOCCN2CCN(C3CCC(n4nc(-c5ccc(Oc6ccccc6)cc5)c5c(N)ncnc54)CC3)CC2)C(C)(C)C)cc1 (stereo partly drawn) [Compound 114]	30%

Now look at this one.
Consider the compound Nc1ncnc2c1c(-c1ccc(Oc3ccccc3)cc1)nn2C1CCN(CCCOCCCOCCC(=O)Nc2cccc3c2C(=O)N(C2CCC(=O)NC2=O)C3=O)CC1 (stereo not drawn) [Compound 103] and give its measured Max.
95%

###

- experimental_system: BTK (Homo sapiens, UniProt Q06187)
- measurement_protocol: BTK degradation in NAMALWA cells (immunoblot)
- Assay type: cell-based
- Set-up: host or cells: NAMALWA
- assay_context: concentration needed to degrade 50% of the total pool of BTK; NAMALWA cells
reported_endpoint: DC50

Some molecules with recorded DC50:
molecule	DC50
Cc1ncsc1-c1ccc(CNC(=O)[C@@H]2C[C@@H](O)CN2C(=O)[C@@H](NC(=O)CCCCCOCCOCCOCCCCCCN2CCC(n3nc(-c4ccc(Oc5ccccc5)cc4)c4c(N)ncnc43)CC2)C(C)(C)C)cc1	No Degradation
Cc1ncsc1-c1ccc(CNC(=O)[C@@H]2C[C@@H](O)CN2C(=O)[C@@H](NC(=O)CCCCCOCCOCCCCCCN2CCC(n3nc(-c4ccc(Oc5ccccc5)cc4)c4c(N)ncnc43)CC2)C(C)(C)C)cc1	No Degradation
C=CC(=O)Nc1cc(-c2nn(C3CCN(CCCCOCCCCOCC(=O)Nc4cccc5c4C(=O)N(C4CCC(=O)NC4=O)C5=O)CC3)c3ncnc(N)c23)ccc1Oc1ccccc1 (centres unmarked)	No Degradation
Cc1ncsc1-c1ccc(CNC(=O)[C@@H]2C[C@@H](O)CN2C(=O)[C@@H](NC(=O)CCCCCOCCCCCOCCCCCCN2CCC(n3nc(-c4ccc(Oc5ccccc5)cc4)c4c(N)ncnc43)CC2)C(C)(C)C)cc1	No Degradation

Consider the molecule `Cc1ncsc1-c1ccc(CNC(=O)[C@@H]2C[C@@H](O)CN2C(=O)[C@@H](NC(=O)COCCOCCOCCCCCCN2CCC(n3nc(-c4ccc(Oc5ccccc5)cc4)c4c(N)ncnc43)CC2)C(C)(C)C)cc1` and give its measured DC50.
No Degradation

###

- experimental_system: BTK (Homo sapiens)
- measurement_protocol: BTK degradation in NAMALWA cells (immunoblot)
- Type: cell-based
- Set-up: host or cells: NAMALWA
- assay_context: concentration needed to degrade 50% of the total pool of BTK; NAMALWA cells; read-out: DC50
Labelling: DC50 reported below 100 nM becomes Criterion met; at or above becomes Criterion not met.

compound	group_label
Cc1ncsc1-c1ccc(CNC(=O)[C@@H]2C[C@@H](O)CN2C(=O)[C@H](C(C)C)N2Cc3ccccc3C2=O)c(OCCCCOCCCCN2CCC(n3nc(-c4ccc(Oc5ccccc5)cc4)c4c(N)ncnc43)CC2)c1 [Compound 127]	Criterion not met
Cc1ncsc1-c1ccc(CNC(=O)[C@@H]2C[C@@H](O)CN2C(=O)[C@@H](NC(=O)COCCOCCOCCOCCOCCCCCCN2CCC(n3nc(-c4ccc(Oc5ccccc5)cc4)c4c(N)ncnc43)CC2)C(C)(C)C)cc1 [Compound 118]	Criterion not met
Cc1ncsc1-c1ccc(CNC(=O)[C@@H]2C[C@@H](O)CN2C(=O)[C@@H](NC(=O)COCCOCCOCCOCCCCCCN2CCC(n3nc(-c4ccc(Oc5ccccc5)cc4)c4c(N)ncnc43)CC2)C(C)(C)C)cc1 [Compound 115]	Criterion not met

Report whether reported DC50 is lower than 100 nM (strictly) for Nc1ncnc2c1c(-c1ccc(Oc3ccccc3)cc1)nn2C1CCN(CCCOCCCOCCC(=O)Nc2cccc3c2C(=O)N(C2CCC(=O)NC2=O)C3=O)CC1 (stereo not drawn) [Compound 103]
Criterion met

Report whether reported DC50 is lower than 100 nM (strictly) for Nc1ncnc2c1c(-c1ccc(Oc3ccccc3)cc1)nn2C1CCN(CCCCCCOCCOCC(=O)Nc2cccc3c2C(=O)N(C2CCC(=O)NC2=O)C3=O)CC1 (stereo not drawn) [Compound 104]
Criterion met
